Origin of measurements: paper PMC11926788

# Experiment Notes: Pharmacokinetic study of SSR504734 in mice (serum and tissue concentrations by LC-MS/MS, noncompartmental analysis)
# Format: in vivo
# Experimental Setup: mouse, ip, kidneys, single 30 mg/kg i.p., read-out: Cmax
Result Type: Cmax (ng/g)
Numbers only; they are read as ng/g.

Please give the measured Cmax for this compound: O=C(NC(c1ccccc1)C1CCCCN1)c1cccc(C(F)(F)F)c1Cl (stereo not shown) [SSR504734]
93500

----------
# Experiment Notes: Pharmacokinetic study of SSR504734 in mice (serum and tissue concentrations by LC-MS/MS, noncompartmental analysis)
# Type: in vivo
# Experimental Setup: mouse, lungs (relative to serum), ip, 30 mg/kg, lungs, single 30 mg/kg i.p., read-out: Kp (tissue-to-serum partition coefficient)
Result Type: Kp
Field format: numeric only.

Recorded Kp for O=C(NC(c1ccccc1)C1CCCCN1)c1cccc(C(F)(F)F)c1Cl (stereo not shown) , please?
89.8
